- tested_system: hCRTH2 (Homo sapiens)
- Construct: expressed in transfected cells; host or cells: HEK (human embryonic kidney) cells expressing hCRTH2; membrane preparation
- Sequence (Q9Y5Y4 whole entry): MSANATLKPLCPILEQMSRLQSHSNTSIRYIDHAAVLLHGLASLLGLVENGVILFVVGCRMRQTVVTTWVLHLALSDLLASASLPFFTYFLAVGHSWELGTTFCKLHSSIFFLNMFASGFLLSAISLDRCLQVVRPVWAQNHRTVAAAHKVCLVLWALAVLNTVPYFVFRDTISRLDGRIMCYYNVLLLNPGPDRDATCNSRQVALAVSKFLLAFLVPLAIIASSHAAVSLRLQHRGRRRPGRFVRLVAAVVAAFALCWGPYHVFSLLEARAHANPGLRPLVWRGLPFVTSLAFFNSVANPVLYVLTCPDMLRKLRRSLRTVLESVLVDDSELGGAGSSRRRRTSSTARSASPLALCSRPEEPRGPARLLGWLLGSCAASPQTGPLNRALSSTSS
- assay_info: Radioligand binding assay ([3H]PGD2 competition, HEK-hCRTH2 membranes)
- test_parameters: [3H]PGD2 competition, Table B
pKi: −log10 of the molar value.
recorded_metric: pKi

- CC1(C)CC[C@@H](NC(=O)c2ccc3nc(-c4ccccc4)c(CCCCC(=O)O)nc3c2)c2ccccc21: 7.70 to 8.68
- O=C(N[C@H](c1ccc(F)cc1)C(F)(F)F)c1ccc2nc(-c3ccccc3)c(CCCC(F)(F)C(=O)O)nc2c1: 6.15 to 6.70
- O=C(O)CCCCc1nc2cc(C(=O)N3CCN(c4c(Cl)cncc4Cl)CC3)ccc2nc1-c1ccc(Cl)cc1: 8.70 to 10.00
- O=C(O)CCCCc1nc2cc(C(=O)N3CCN(c4ccccn4)CC3)ccc2nc1-c1ccc(F)cc1: 7.70 to 8.68
- O=C(O)CCCCc1nc2cc(C(=O)N[C@@H]3CCOc4cc(F)c(F)cc43)ccc2nc1-c1ccc(F)cc1: 7.70 to 8.68
- C[C@@H](NC(=O)c1ccc2nc(-c3ccc(C(F)(F)F)cc3Cl)c(CCCCC(=O)O)nc2c1)c1ccc(F)cc1: 7.70 to 8.68
- C[C@@H](CCc1nc2cc(C(=O)N[C@@H]3CCCc4ccccc43)ccc2nc1-c1ccc(F)cc1)CC(=O)O [compound 440]: 8.70 to 10.00
